Molecular target: T1, Human CD19-his protein (human, UniProt P15391 20-291)
T1 construct: bought protein; also called human CD19 protein; recombinant human CD19-His; not shown: His tag
T1 sequence (looked up): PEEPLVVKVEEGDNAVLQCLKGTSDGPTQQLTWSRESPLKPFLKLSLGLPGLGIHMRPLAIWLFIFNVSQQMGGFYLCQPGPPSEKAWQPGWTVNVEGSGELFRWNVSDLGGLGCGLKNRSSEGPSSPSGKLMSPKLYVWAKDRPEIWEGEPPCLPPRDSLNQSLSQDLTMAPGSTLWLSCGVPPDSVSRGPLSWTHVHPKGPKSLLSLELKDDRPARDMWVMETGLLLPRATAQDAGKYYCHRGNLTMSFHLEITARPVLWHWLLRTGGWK
Test: ELISA, antibody at 1.00 nM
Method: Human CD19-his protein (purchased from ACROBiosystems, catalog number: CD9-H52H2) was diluted with PBS to a final concentration of 4 μg/mL, and then added to a 96-well ELISA plate at 100 μl/well. […] The OD450 nm values were read by an ELISA microplate reader (Multimode Plate Reader, EnSight, purchased from Perkin Elmer).
Documented OD450 across a set of binders
Just the number, please.

Qu. Need OD450, item F5.3.6 (antibody, human IgG1, V domains shown, human-murine chimeric antibody, human IgG1) VH: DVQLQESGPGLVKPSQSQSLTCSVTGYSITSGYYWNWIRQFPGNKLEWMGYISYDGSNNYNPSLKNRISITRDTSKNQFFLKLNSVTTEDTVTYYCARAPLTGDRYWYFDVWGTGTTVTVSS VL: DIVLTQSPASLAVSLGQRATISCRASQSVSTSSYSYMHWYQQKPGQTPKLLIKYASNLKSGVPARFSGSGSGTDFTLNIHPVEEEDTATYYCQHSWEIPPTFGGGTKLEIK
Ans. 1.11

Qu. Need OD450, item F3.3.10 (antibody, human IgG1, V domains shown, human-murine chimeric antibody, human IgG1) VH: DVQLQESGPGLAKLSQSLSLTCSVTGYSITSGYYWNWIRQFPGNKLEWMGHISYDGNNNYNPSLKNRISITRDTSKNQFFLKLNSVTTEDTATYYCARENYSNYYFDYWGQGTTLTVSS VL: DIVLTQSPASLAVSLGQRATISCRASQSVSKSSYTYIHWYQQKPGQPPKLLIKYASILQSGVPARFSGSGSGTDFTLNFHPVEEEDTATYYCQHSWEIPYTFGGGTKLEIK
Ans. 0.21

Qu. Need OD450, item F3.40.14 (antibody, human IgG1, V domains shown, human-murine chimeric antibody, human IgG1) VH: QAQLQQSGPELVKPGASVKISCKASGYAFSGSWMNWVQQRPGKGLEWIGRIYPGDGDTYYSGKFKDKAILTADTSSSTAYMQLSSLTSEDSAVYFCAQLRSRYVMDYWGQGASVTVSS VL: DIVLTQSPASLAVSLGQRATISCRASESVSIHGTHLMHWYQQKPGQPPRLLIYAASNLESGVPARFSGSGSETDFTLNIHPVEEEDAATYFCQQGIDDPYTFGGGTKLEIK
Ans. 0.42

Qu. Need OD450, item F6.2.9 (antibody, human IgG1, V domains shown, human-murine chimeric antibody, human IgG1) VH: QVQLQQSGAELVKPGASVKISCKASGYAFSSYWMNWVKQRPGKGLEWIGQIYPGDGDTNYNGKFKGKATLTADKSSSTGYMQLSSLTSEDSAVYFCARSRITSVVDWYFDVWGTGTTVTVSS VL: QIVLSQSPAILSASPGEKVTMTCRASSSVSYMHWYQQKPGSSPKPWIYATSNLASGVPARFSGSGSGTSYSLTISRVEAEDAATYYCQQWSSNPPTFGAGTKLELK
Ans. 0.13

Qu. Need OD450, item F3.23.10 (antibody, human IgG1, V domains shown, human-murine chimeric antibody, human IgG1) VH: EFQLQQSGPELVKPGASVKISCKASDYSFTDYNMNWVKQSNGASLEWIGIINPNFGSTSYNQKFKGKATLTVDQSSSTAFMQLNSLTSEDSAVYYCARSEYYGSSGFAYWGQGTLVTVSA VL: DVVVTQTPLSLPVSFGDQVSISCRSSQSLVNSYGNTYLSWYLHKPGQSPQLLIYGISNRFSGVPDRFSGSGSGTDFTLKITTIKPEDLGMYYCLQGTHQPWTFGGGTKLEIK
Ans. 1.27
